Tested on: U251 CNS
test details: NCI tumour cell line growth inhibition, 48 h
Reported values of TGI for individual entries
endpoint: TGI

>>> df
                                   compound  endpoint  measured_result
0  COc1cc2cnc3c4cc(OC)c(OC(C)C)cc4ccc3c2cc1OC       TGI         > 100 µM
1                   C1=Cc2cccc3occ(c23)C=C1       TGI         > 100 µM
2  CC1OC(CC2C=CCc3c(O)c4c(c(O)c32)C(=O)c2ccccc2C4=O)CC(NC(=O)C(F)(F)F)C1O (stereo not given)       TGI          15.4 µM
3  CC(C)CC1NC(=O)CCC(NC(=O)C(Cc2ccc(O)cc2)NC(=O)OCc2ccccc2)C(=O)NC(Cc2ccccc2)C(=O)NC(Cc2ccccc2)NC1=O (stereo not given)       TGI         > 100 µM
4  COC(=O)C1=COC2OC3CC1C2C(C)O3 (stereo not given)       TGI         > 100 µM

====

Listed here: items and their measured GI50.
System: M14 melanoma
test details: NCI tumour cell line growth inhibition, 48 h
endpoint: GI50

In [3]: df
Out[3]:
                                   compound  measured_result
0  CC1(C)CC[C@]2(CO)CC[C@]3(C)C(=CC[C@@H]4[C@@]5(C)CCNCC(C)(C)[C@@H]5CC[C@]43C)[C@@H]2C1          2.05 µM
1  Cc1cn2c(/C=C3\C(=O)N(C)c4ccc(Cl)cc43)c(C)nc2s1           3.3 µM
2             CCCCNCCCCCNc1cc(OC)cc2cccnc12          14.9 µM
3  O=C(CC1Sc2ccccc2NC1=O)NNc1ccc(F)cc1 (centres undefined)           5.5 µM

====

System: NCI-H23 lung
test details: NCI tumour cell line growth inhibition, 48 h
endpoint: GI50

In [3]: df
Out[3]:
                                   molecule  experimental_system  measured_result
0  COc1cc([C@@H]2c3cc4c(cc3[C@@H](NC(=O)NO)[C@H]3COC(=O)[C@H]23)OCO4)cc(OC)c1O         NCI-H23 lung          9.31 µM
1  OCC1OC(n2cnc3c(NCc4ccccc4O)ncnc32)C(O)C1O (centres undefined)         NCI-H23 lung         0.457 µM
2  Cn1cc(-c2nc(-c3cn(C)c4ncccc34)cs2)c2ccccc21         NCI-H23 lung          3.14 µM
3             NC(=O)c1ncn2c(=O)n(CCCl)nnc12         NCI-H23 lung        > 72.8 µM
4  CCOP(=O)(OCC)C(NC(c1ccccc1)c1ccccc1)c1ccc(C(C)C)cc1 (centres undefined)         NCI-H23 lung          6.38 µM
5  C=C1C(=O)O[C@H]2[C@H]1CC/C(COC(=O)/C=C\C(=O)NCc1ccc(Cn3c(=O)sn(-c4ccc(Cl)cc4)c3=O)cc1)=C\CC[C@@]1(C)O[C@@H]21         NCI-H23 lung         0.884 µM
6  Cc1ccc(C2C3Cc4ccccc4C3=NN2c2ccc(S(=O)(=O)NC(=O)Nc3ccccc3)cc2)cc1 (centres undefined)         NCI-H23 lung          14.9 µM
7  COc1ccc2[nH]c3c(O)c(-c4c(C)cc5c([nH]c6ccc(OC)cc65)c4O)c(C)cc3c2c1         NCI-H23 lung          4.48 µM
8  C=C1C(=O)O[C@H]2[C@H]1CC/C(COC(=O)N[C@H](Cc1c[nH]c3ccccc13)C(=O)OC)=C\CC[C@@]1(C)O[C@@H]21         NCI-H23 lung           4.3 µM

====

Catalogue of log10 of TGI values
System: IGROV1 ovarian
test details: NCI tumour cell line growth inhibition, 48 h
endpoint: log10 of TGI (log10 of the value in µM)

>>> print(df.to_string())
                    structure_smiles_string      endpoint  measured_result
0       Cc1ccc(NC2=CC(=O)C(=O)c3ccccc32)cc1  log10 of TGI             1.11
1  CCC(=C(c1ccc(OCCN2CCCC2)cc1)c1ccc(OCCN2CCCC2)cc1)c1ccc(Cl)cc1  log10 of TGI             0.04
2          O=C1c2c(O)cccc2Cc2cc(CO)cc(O)c21  log10 of TGI             1.30
3  CCOC(=O)c1ccn2c(c1)c(C#N)c1nc3ccccc3nc12  log10 of TGI             1.78
4  O=C1CCc2ccc(O)c(c2)Oc2ccc(cc2)[C@@H]2O[C@@H]2CO1  log10 of TGI             1.70

====

Test system: UACC-257 melanoma
test details: NCI tumour cell line growth inhibition, 48 h

molecule	TGI
C=C1C(C(=O)O)C1C(=O)O (centres undefined)	> 100 µM
c1ccc2c(c1)[nH]c1c3ccccc3sc21	> 100 µM
CC(C)CC1NC(=O)CCC(NC(=O)C(Cc2ccc(O)cc2)NC(=O)OCc2ccccc2)C(=O)NC(Cc2ccccc2)C(=O)NC(Cc2ccccc2)NC1=O (centres undefined)	> 100 µM
COC(=O)C1=COC2OC3CC1C2C(C)O3 (centres undefined)	> 100 µM
Cc1cc(C)c(C(=O)C(C)C(c2ccccc2)c2ccc(Cl)cc2)c(C)c1 (centres undefined)	> 100 µM
COC(=O)[C@H](CCCCNC(=O)OCc1ccccc1)NC(=O)[C@@H](NC(=O)Nc1cc(C(F)(F)F)cc(C(F)(F)F)c1)C(C)C	> 10 µM
CC1(C)CN(CCNc2nccc(-c3c(-c4cccc(O)c4)nc4sccn34)n2)S(=O)(=O)N1	> 33.2 µM
CCN(CC)CCCC(C)Nc1ccnc(/C=C/c2ccc(Cl)cc2)c1 (centres undefined)	3.59 µM
CCN(CC)CCCNc1cc(OC)c(OC)c2cccnc12	22.4 µM
O=C(OCc1ccccc1)n1cccc1	> 100 µM
CNC(=O)NCCN1N=C(C)/C(=C\c2ccccc2)CC1=O	> 100 µM
Cc1nn(-c2ccccc2)c2nc(C)n(-c3ccc(Br)cc3)c(=O)c12	> 100 µM
C=CCN1C(=O)[C@]2(SC1=S)[C@H](c1cccc(Cl)c1)CN(C)[C@]21C(=O)NC2C=CC(Cl)=C[C@H]21 (some centres undefined)	35.8 µM
CC(=O)OC(C)c1cc2c(s1)C(=O)c1ccsc1C2=O (centres undefined)	0.156 µM
O=C(c1ccc(Nc2nccc(NCCCCNc3ccnc4cc(Cl)ccc34)n2)cc1)N1CCCCC1	3.34 µM
COc1ccc(NC(/C(C(=O)C(=O)/C=C(\O)c2ccccc2)=C(\O)c2ccccc2)c2ccc(OC)cc2)cc1 (centres undefined)	> 100 µM
CCC(C(=O)[C@@H](C)[C@@H](O)[C@H](C)[C@@H]1O[C@@H]([C@@H](CC)C(=O)ONC(=O)c2ccccc2)CC[C@@H]1C)[C@H]1O[C@]2(C=CC(=O)[C@]3(CC[C@@](C)([C@H]4CC[C@](O)(CC)[C@H](C)O4)O3)O2)[C@H](C)C[C@@H]1C (some centres undefined)	5.61 µM
Oc1cccc2ccc(Br)nc12	> 100 µM
CCOC(=O)c1cc2c(n1Cc1cc(OC)cc(OC)c1)-c1oncc1CC2	> 100 µM

====

Test system: SK-MEL-28 melanoma
test details: NCI tumour cell line growth inhibition, 48 h
We begin with a simple list: items and their reported TGI.
endpoint: TGI

>>> df
                                   molecule  endpoint  measured_result
0  CCC(=O)CCC1=Nc2nnc(CCCCc3nnc4n3C(=O)C(CCC(=O)CC)=N4)n2C1=O       TGI         > 100 µM
1  CCOC(=O)C1=NNC(C(=O)c2ccccc2)C1c1ccccc1 (centres undefined)       TGI          3.67 µM
2  CC1(C)CCC[C@@]2(C)C1CC[C@@]1(CO1)[C@@H]2/C=C\C(C=O)CC=O (some centres undefined)       TGI         > 100 µM
3  c1ccc(COC[C@H]2C3OCC([C@H](OCc4ccccc4)[C@H]3OCc3ccccc3)N2Cc2ccccc2)cc1 (some centres undefined)       TGI         > 100 µM
4  O=C(Nc1ccc(Cl)cc1)N1CCN(c2ccc3nncn3n2)CC1       TGI         > 100 µM
5              O=S(=O)(CF)OCCCCOS(=O)(=O)CF       TGI         > 100 µM
6  CN(C)C/C=C/C(=O)Nc1cc2c(Nc3cccc(Cl)c3F)ncnc2cc1OCCOC(F)F       TGI          15.3 µM
7  C/C=C1/C(=Cc2[nH]c(C=c3[nH]/c(=C/C4=NC(=O)C(CC)=C4C)c(C)c3CCC(=O)O)c(CCC(=O)O)c2C)NC(=O)C1C (centres undefined)       TGI          > 50 µM
8  CC[Si](CC)(CC)OC1[C@@H](O[Si](CC)(CC)CC)[C@@H](CNC(=O)NC)O[C@H]1n1cnc2c(NC(=O)Nc3ccccc3)ncnc21 (some centres undefined)       TGI         > 100 µM
